- Assay Overview: GFP drop in mixed WT/humanized-ribosome E. coli culture – GFP/RFP fluorescence, OD600, single point, bacterial rRNA inhibitor project, primary screen (AID 720706)
- Test Settings: E. coli WT GFP vs humanized-ribosome RFP mutants, 24 h; measured here: OD600 growth, DMSO median 0, no signal -100
In all, about 350,000 compounds went through this assay and about 5,500 (1.6%) were called active. Only a selection was taken, and actives are over-represented in it overall.

Compound	OD600 change (%)
COc1ccccc1C(=O)NCCn1cc(SCC(=O)NCc2ccco2)c2ccccc21	-15.6
Cc1ccc(S(=O)(=O)N2CCN(c3ccccc3)CC2)cc1C	-15.2
COc1ccc(C(=O)C2CCCN(C(=O)c3ccc(OC)o3)C2)c(C)c1 (stereo unspecified)	-8.41
N#Cc1cccc(C(=O)NCC2CCN(C(=O)C(=O)c3cc4ccccc4o3)CC2)c1	-1.64
Cc1ccc(CNC(=O)Cc2cn(C)c3ccccc23)cc1	-8.64
O=C(C[C@@H]1CC[C@H](NC(=O)C2CCC2)[C@@H](CO)O1)NC1CCCCC1	3.16
COc1ccc(C(=O)C2CCCN(Cc3ccc4nonc4c3)C2)c(C)c1 (stereo unspecified)	-18.1
Cc1ccc(CC2S/C(=C(/C#N)C(=O)N3CCOCC3)N(c3ccccc3)C2=O)cc1 (stereo unspecified)	10.1
CC(O)c1ccc(OCCN(C)c2ccccn2)cc1 (stereo unspecified)	9.08
CC(CC(=O)O)C(=O)c1ccc(Cl)c([N+](=O)[O-])c1 (stereo unspecified)	9.82
O=C(c1ccccn1)N1CC(=O)N2[C@H](CO)[C@H](c3ccc(C#CCc4ccccc4)cc3)[C@H]2C1	-4.41
CC(C)=N/N=C1/NC(=O)C(Cc2ccccc2)S1 (stereo unspecified)	0.06
CC(C)(C)c1ccc(S(=O)(=O)NCC2CCN(C(=O)C(=O)c3cc4ccccc4o3)CC2)cc1	0.126
CCC(=O)N1CCC2(CC1)CN(Cc1ccc(Cl)cc1)[C@@H](CO)c1[nH]c3cc(OC)ccc3c12	-3.27
COc1cccc(NC(=O)COc2cccnc2[N+](=O)[O-])c1	2.69
CCc1ccc(NC(=O)N2CCc3ccccc3C2)cc1	-10.6
O=C(O)c1[nH]c2ccccc2c1C(c1cccc(O)c1)c1c(C(=O)O)[nH]c2ccccc12	-18.5
COc1ccccc1C(=O)NCCC(=O)NCC(c1ccco1)N1CCCCC1 (stereo unspecified)	11.1
COc1ccc(/C(C)=N/NC(=O)CCC(=O)Nc2ccc(Cl)cc2Cl)c(OC)c1	-4.28
CO[C@H]1CN(C)C(=O)c2ccc(NC(=O)C3CC3)cc2OC[C@H](C)N(C(=O)CN2CCOCC2)C[C@@H]1C	1.32
O=C(c1ccc(N2CCOCC2)c([N+](=O)[O-])c1)N1CCN(c2ccccc2F)CC1	-35.6
O=C(C[C@H]1CC[C@@H](NC(=O)Cc2ccccn2)[C@H](CO)O1)NCCc1ccccc1	-12
COc1ccc(C(=O)C2CCCN(Cc3cccn3-c3ccccn3)C2)c(C)c1 (stereo unspecified)	-23
O=C(OCC(=O)c1c[nH]c2ccccc12)c1cccc(O)c1	-45.1
CN(C)c1ccc(/C=C/C(=O)c2ccc(O)cc2)cc1[N+](=O)[O-]	-13.8
CN(CCOc1ccc(CC2SC(=O)NC2=O)cc1)c1ccccn1 (stereo unspecified)	-19.1
CCN1CCN(c2nc(Nc3cccc(F)c3)nc(N)c2[N+](=O)[O-])CC1	-14.8
COc1ccc(OC)c(/C(C)=N\NC(=O)c2cc3cc(Cl)ccc3n2C)c1	-9.4
Cc1ccc(S(=O)(=O)N2CC(=O)Nc3ccccc32)cc1C	-6.68
O=[N+]([O-])c1cc([N+](=O)[O-])c2cccnc2c1O	19.1
CC(C)NC(=O)Nc1ccc2c(c1)C(=O)N([C@@H](C)CO)C[C@H](C)[C@@H](CN(C)Cc1ccc(C(=O)O)cc1)OCCCC[C@H](C)O2	3.15
Cc1ccc(N2C(=O)SC(N(CC(=O)O)c3ccc(C)cc3)C2=O)cc1 (stereo unspecified)	-12.3
O=C(C(=O)N1CCC(CNS(=O)(=O)Cc2ccccc2)CC1)c1cc2ccccc2o1	-14.9
COc1cc(C(=O)NCc2cc3cc(Cl)ccc3n2C)cc(OC)c1OC	12
O=C(/C=C/c1ccc(Cl)cc1)N1CCN(c2ccccc2[N+](=O)[O-])CC1	-42.6
CCn1c(O)c(N=NC(=O)c2cccc(S(=O)(=O)N3CCCCC3)c2)c2ccccc21	-16.1
CC(=O)Nc1ccc(C=CC(=O)c2ccc([N+](=O)[O-])cc2)cc1	7.9
Cn1cc(C2OC(=O)c3ccccc32)c2ccccc21 (stereo unspecified)	-18.9
COc1cccc(OC)c1C(=O)NC(=S)NCc1ccco1	5.07
O=C(c1cccc(F)c1)N1CCN(c2ccc([N+](=O)[O-])c3cccnc23)CC1	-11
O=C(c1cnccn1)N1CC(=O)N2[C@H](C1)[C@@H](c1ccc(C3=CCCCC3)cc1)[C@@H]2CO	-21.9
